Recorded Diameter (nm) for the following compounds
Assay: Diameter and PDI from DLS measurements of mRNA nanoparticles with lipid amines
Format: physicochemical
Settings: Luciferase mRNA nanoparticle modified with lipid amine
Counter-ions that a name gives are not always drawn.
All answers are understood in nm, so give the number only.

| compound | unit_of_measurement | Diameter (nm) |
| --- | --- | --- |
| CC(C)CCC[C@@H](C)[C@H]1CC[C@H]2[C@@H]3CC=C4C[C@@H](OC(=O)CN(CCCCCCCCN)C(=O)[C@@H](N)CCCN)CC[C@]4(C)[C@H]3CC[C@]12C.Cl.Cl.Cl | nm | 70 |
| CC(C)CCC[C@@H](C)[C@H]1CC[C@H]2[C@@H]3CC=C4C[C@@H](OC(=O)N(CCCCNC(C)CC(C)N)C(C)CC(C)N)CC[C@]4(C)[C@H]3CC[C@]12C.Cl.Cl.Cl (stereo partly drawn) | nm | 75 |
| CC[C@H](CC[C@@H](C)[C@H]1CC[C@H]2[C@@H]3CC=C4C[C@@H](OC(=O)CCCC(=O)N(CCCCCCCC(C)(C)N)CCC(C)(C)N)CC[C@]4(C)[C@H]3CC[C@]12C)C(C)C [SA155, dihydrochloride] | nm | 73 |
| CCC(N)CCNCCCCN(CCC(N)CC)C(=O)O[C@H]1CC[C@@]2(C)C(=CC[C@H]3[C@@H]4CC[C@H]([C@H](C)CCCC(C)C)[C@@]4(C)CC[C@@H]32)C1.Cl.Cl.Cl (stereo partly drawn) | nm | 74 |
| CC(C)CCC[C@@H](C)[C@H]1CC[C@H]2[C@@H]3CC=C4C[C@@H](OC(=O)CCC(=O)N(CCCC(C)(C)N)CCC(C)(C)N)CC[C@]4(C)[C@H]3CC[C@]12C [SA166, dihydrochloride] | nm | 75 |

Switching to the query record.
Input line: Fill in: Diameter (nm) of CC[C@H](CC[C@@H](C)[C@H]1CC[C@H]2[C@@H]3CC=C4C[C@@H](OC(=O)N(CCCCNC(C)CCN)C(C)CCN)CC[C@]4(C)[C@H]3CC[C@]12C)C(C)C (stereo partly drawn) [SA113, trihydrochloride] is ___
Output line: 77
